Each recorded value in this set is attributed to paper PMC5665024.

endpoint: pKi
The read-out pKi is expressed as -log10 of concentration in moles per litre.

[in] What is its pKi for human DNA polymerase β (pol β) (Homo sapiens, UniProt P06746)? Entry: C=CCc1ccc(O)c(-c2ccc(O)c(CC=C)c2)c1 [HNL]
[out] 5.40

---

# tested target: pol λ binding to DNA (Homo sapiens, UniProt Q9UGP5)
# Sequence (Q9UGP5 1-575): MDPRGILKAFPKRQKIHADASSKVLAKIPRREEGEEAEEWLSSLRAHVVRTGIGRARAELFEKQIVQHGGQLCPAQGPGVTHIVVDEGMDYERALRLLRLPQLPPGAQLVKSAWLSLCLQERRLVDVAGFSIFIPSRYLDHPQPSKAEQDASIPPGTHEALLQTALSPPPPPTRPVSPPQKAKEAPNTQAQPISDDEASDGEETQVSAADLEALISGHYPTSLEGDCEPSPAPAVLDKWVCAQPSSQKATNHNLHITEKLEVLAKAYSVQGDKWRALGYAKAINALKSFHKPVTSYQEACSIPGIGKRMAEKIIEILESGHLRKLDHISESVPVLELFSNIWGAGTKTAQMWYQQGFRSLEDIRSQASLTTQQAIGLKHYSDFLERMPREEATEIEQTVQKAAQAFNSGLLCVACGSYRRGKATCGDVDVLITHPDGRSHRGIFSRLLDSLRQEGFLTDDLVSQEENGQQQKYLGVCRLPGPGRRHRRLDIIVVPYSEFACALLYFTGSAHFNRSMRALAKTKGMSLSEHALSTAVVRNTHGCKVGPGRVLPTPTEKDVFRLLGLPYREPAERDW
# experimental protocol: Polymerase–DNA interaction, electrophoretic mobility shift assay, pol λ
endpoint: Ki

[in] Which value of Ki has been reported for C=CCc1ccc(O)c(-c2ccc(O)c(CC=C)c2)c1 [HNL] in the records?
[out] > 500 µM
